system name: T1, HIS-tagged human NKG2D (human, UniProt P26718 73-216, limits assumed)
T1 construct: Captured on HIS1K biosensors; not shown: HIS tag
T1 sequence (looked up): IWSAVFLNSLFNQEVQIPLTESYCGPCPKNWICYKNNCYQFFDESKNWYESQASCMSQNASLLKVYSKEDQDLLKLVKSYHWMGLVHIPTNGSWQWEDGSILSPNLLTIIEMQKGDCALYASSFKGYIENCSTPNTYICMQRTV
test protocol: Octet (BLI): His-tagged human NKG2D captured on HIS1K biosensors, dipped into 100 nM bivalent mAb
experimental endpoint: kon (M⁻¹ s⁻¹)
# value in M⁻¹ s⁻¹; strip the unit string

XENP27613 (antibody, human IgG1, kappa, V domains shown, humanized bivalent anti-NKG2D mAb, IgG1 with ablation variants; also called mAb A[NKG2D]_H2L1_IgG1_PVA_/S267K) VH: QVQLQESGPGLVKPSETLSLTCTVSGFSLTSYGVHWIRQPPGKGLEWIGVIWAGGSTNYNPSLKSRVTISKDNSKSQVSLKLSSVTAADTAVYYCARGGYEGAAWFGYWGQGTLVTVSS VL: DIQLTQSPSSLSASVGDRVTITCRASSSVSYMHWYQQKPGKSPKPLIYATSNLASGVPARFSGSGSGTDYTLTISSLQPEDFATYYCQQWNSNPLTFGAGTKVEIKR ... 254000
XENP27591 (antibody, human IgG1, kappa, V domains shown, bivalent anti-NKG2D mAb, IgG1 with ablation variants; also called 11B2D10[NKG2D]_H0L0_IgG1_PVA_/S267K) VH: QVQLQQSGPELVRPGASVKLSCKASGYTFTSYWMNWVQQRPEQGLEWIGRIDPYDSETHYNQKFKDKAILTVDKSASTAYMQLSSLTSEDSAVYYCAKMGDYSFDYWGQGTTVTVSS VL: DIQLTQSPASLSASVGETVTITCRASGNIHNYLAWYQQKQGKSPQVLVYNAKTLADGVPSRFSGSGSGTQYSLKINSLQPEDFGSYYCQHFWSTTWTFGGGTKLEIKR ... 1.45e+06
XENP27607 (antibody, human IgG1, kappa, V domains shown, humanized bivalent anti-NKG2D mAb, IgG1 with ablation variants; also called mAb C[NKG2D]_H1L1_IgG1_PVA_/S267K) VH: EVQLVESGGGLVQPGGSLRLSCAVSGFSLTIYGVHWVRQAPGKGLEWVSVIWSGGSTDYNAKVKGRFTISKDNSKRTVYLQMNSLRAEDTAVYYCSRKSHDGYYGVMDYWGQGTTVTVSS VL: DIQLTQSPDFQSVTPKEKVTITCRASQSIGTSIHWYQQKPDQSPKLLIKYASESISGIPSRFSGSGSGTDFTLTINSLEAEDAATYYCQQSNTWPLTFGAGTKVEIKR ... 706000
XENP27596 (antibody, human IgG1, kappa, V domains shown, bivalent anti-NKG2D mAb, IgG1 with ablation variants; also called mAb D[NKG2D]_H1L1_IgG1_PVA_/S267K) VH: QVQLVQSGAEVKKPGASVKVSCKASGYTFTNYWMHWVRQAPGQGLEWMGEIDPSDIYTNYAQKFQGRVTMTRDTSTSTVYMELSSLRSEDTAVYYCARGIYDGYYVYGMDYWGQGTTVTVSS VL: YIQMTQSPSSLSASVGDRVTITCRSSQDISNYLNWYQQKPGKAPKLLIYYTSRLHSGVPSRFSGSGSGTDFTFTISSLQPEDIATYYCQQGKTLPRTFGGGTKVEIKR ... 698000
XENP27606 (antibody, human IgG1, kappa, V domains shown, humanized bivalent anti-NKG2D mAb, IgG1 with ablation variants; also called mAb B[NKG2D]_H3L2_IgG1_PVA_/S267K) VH: EVQLVESGGGLVQPGGSLRLSCAASGYTFTSYWMNWVRQAPGKGLVWVSRIDPYDSETHYNQKVKGRFTISVDKAKSTAYLQMNSLRAEDTAVYYCAKMGDYSFDYWGQGTLVTVSS VL: DIQLTQSPDSLAVSLGERATINCKASGNIHNYLAWYQQKPGQSPKVLVYNAKTLADGVPSRFSGSGSGTDYTLTISSLQAEDVAVYYCQHFWSTTWTFGGGTKVEIKR ... 1.77e+06

Give the reported kon for this binder. XENP27598 (antibody, human IgG1, kappa, V domains shown, humanized bivalent anti-NKG2D mAb, IgG1 with ablation variants; also called mAb B[NKG2D]_H1L1_IgG1_PVA_/S267K) VH: QVQLVQSGAEVKKPGASVKVSCKASGYTFTSYWMNWVRQAPGQGLEWMGRIDPYDSETHYNQKFQGRVTMTVDKSTSTAYMELSSLRSEDTAVYYCAKMGDYSFDYWGQGTLVTVSS VL: DIQLTQSPSSLSASVGDRVTITCRASGNIHNYLAWYQQKPGKSPKVLVYNAKTLADGVPSRFSGSGSGTDYTLTISSLQPEDFATYYCQHFWSTTWTFGGGTKVEIKR 1.1e+06

Look up and report measured kon for this entry: XENP27612 (antibody, human IgG1, kappa, V domains shown, humanized bivalent anti-NKG2D mAb, IgG1 with ablation variants; also called mAb A[NKG2D]_H1L2_IgG1_PVA_/S267K) VH: QVQLVQSGAEVKKPGASVKVSCKVSGFSLTSYGVHWIRQAPGQGLEWMGVIWAGGSTNYNSKFQGRVTMTKDNSKSTVYMELSSLRSEDTAVYYCARGGYEGAAWFGYWGQGTLVTVSS VL: DIQLTQSPATLSLSPGERATLSCRASSSVSYMHWYQQKPGQSPRPLIYATSNLASGVPARFSGSGSGTDYTLTISSLEPEDFAVYYCQQWNSNPLTFGAGTKVEIKR 224000

Determine its reported kon: XENP27592 (antibody, human IgG1, kappa, V domains shown, bivalent anti-NKG2D mAb, IgG1 with ablation variants; also called 6E5A7[NKG2D]_H0L0_IgG1_PVA_/S267K) VH: QVQLQQSGPGLVQPSQSLSITCTVSGFSLTIYGVHWVRQSPGKGLEWLGVIWSGGSTDYNAAFISRLSISKDNSKRQVFFKMSSLQANDTAIYYCSRKSHDGYYGVMDYWGQGTTVTVSS VL: DIQLTQSPAILSVSPGERVSFSCRASQSIGTSIHWYQQRTNGSPRLLIKYASESISGIPSRFSGSGSGTDFTLSINGVESEDIADYYCQQSNTWPLTFGAGTKLEIKR 489000

Provide kon value for the following binder: XENP27600 (antibody, human IgG1, kappa, V domains shown, humanized bivalent anti-NKG2D mAb, IgG1 with ablation variants; also called mAb B[NKG2D]_H1L2_IgG1_PVA_/S267K) VH: QVQLVQSGAEVKKPGASVKVSCKASGYTFTSYWMNWVRQAPGQGLEWMGRIDPYDSETHYNQKFQGRVTMTVDKSTSTAYMELSSLRSEDTAVYYCAKMGDYSFDYWGQGTLVTVSS VL: DIQLTQSPDSLAVSLGERATINCKASGNIHNYLAWYQQKPGQSPKVLVYNAKTLADGVPSRFSGSGSGTDYTLTISSLQAEDVAVYYCQHFWSTTWTFGGGTKVEIKR 1.12e+06

Give the measured kon for XENP27599 (antibody, human IgG1, kappa, V domains shown, humanized bivalent anti-NKG2D mAb, IgG1 with ablation variants; also called mAb B[NKG2D]_H1_L1.1_IgG1_PVA_/S267K) VH: QVQLVQSGAEVKKPGASVKVSCKASGYTFTSYWMNWVRQAPGQGLEWMGRIDPYDSETHYNQKFQGRVTMTVDKSTSTAYMELSSLRSEDTAVYYCAKMGDYSFDYWGQGTLVTVSS VL: DIQLTQSPSSLSASVGDRVTITCRASGNIHNYLAWYQQKPGKSPKVLVYNAKTLADGVPSRFSGSGSGTDYTLTISSLQPEDFATYYCQHFWSTPWTFGGGTKVEIKR 482000
